# tested system: human TLR7 (Homo sapiens, UniProt Q9NYK1)
# Sequence (Q9NYK1 27-1049): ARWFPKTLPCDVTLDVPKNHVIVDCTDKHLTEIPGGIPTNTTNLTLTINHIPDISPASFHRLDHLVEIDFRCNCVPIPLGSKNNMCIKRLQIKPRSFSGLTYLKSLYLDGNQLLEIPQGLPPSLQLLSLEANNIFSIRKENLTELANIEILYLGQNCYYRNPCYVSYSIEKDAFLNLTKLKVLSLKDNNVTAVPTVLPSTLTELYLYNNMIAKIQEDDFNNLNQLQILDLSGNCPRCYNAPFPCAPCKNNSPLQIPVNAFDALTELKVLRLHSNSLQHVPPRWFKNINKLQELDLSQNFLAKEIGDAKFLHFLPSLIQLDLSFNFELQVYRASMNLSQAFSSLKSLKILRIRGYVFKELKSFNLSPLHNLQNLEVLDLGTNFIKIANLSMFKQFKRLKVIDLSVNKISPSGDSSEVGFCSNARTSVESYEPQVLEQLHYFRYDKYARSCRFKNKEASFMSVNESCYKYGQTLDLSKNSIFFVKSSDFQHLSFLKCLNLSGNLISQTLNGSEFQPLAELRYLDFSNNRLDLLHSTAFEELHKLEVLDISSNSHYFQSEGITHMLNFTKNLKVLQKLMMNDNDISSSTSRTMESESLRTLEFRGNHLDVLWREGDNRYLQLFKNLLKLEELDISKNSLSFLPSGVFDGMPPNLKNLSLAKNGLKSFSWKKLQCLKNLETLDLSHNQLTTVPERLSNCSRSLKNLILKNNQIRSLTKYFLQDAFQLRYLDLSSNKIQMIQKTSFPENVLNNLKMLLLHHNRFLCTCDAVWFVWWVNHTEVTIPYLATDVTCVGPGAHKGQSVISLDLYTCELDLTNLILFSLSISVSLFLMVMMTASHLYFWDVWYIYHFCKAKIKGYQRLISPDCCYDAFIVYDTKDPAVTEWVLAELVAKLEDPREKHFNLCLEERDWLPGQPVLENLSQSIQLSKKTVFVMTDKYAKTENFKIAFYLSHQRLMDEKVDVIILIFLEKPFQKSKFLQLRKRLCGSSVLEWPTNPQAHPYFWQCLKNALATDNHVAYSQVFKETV
# assay procedure: HEK293-Blue-hTLR-7 cells assay
# condition set: HEK293-Blue-hTLR7 cells, R848 stimulation, 20 hrs, SEAP reporter; read-out: HEK/hTLR7 IC50
pIC50: −log10 of the molar value.
readout label: pIC50

Before answering, review these 4 worked examples.
[2H]c1ccc2c(N3C[C@@H]4C[C@H](Nc5ccc(C[C@@H]6CNCCO6)cc5)CCN4[C@H](C)C3)ccc(C#N)c2n1 [Example 22] | 7.36
C[C@@H]1CN(c2ccc(C#N)c3ncccc23)C[C@@H]2C[C@H](c3ccc(N4CCNCC4)nc3)CCN21 [Example 4] | 8.22
C[C@@H]1CN(c2ccc(C#N)c3ncccc23)C[C@H]2C[C@H](c3ccc(N4CCNCC4)nc3)CCN21 [Example 15] | 7.62
C[C@@H]1CN(c2ccc(C#N)c3ncccc23)C[C@@H]2C[C@@H](Oc3cnc(N4CCNCC4)nc3)CCN21 [Example 18] | 7.68

[a] C[C@@H]1CN(c2ccc(C#N)c3ncccc23)C[C@@H]2C[C@H](c3ccc(N4CCOC[C@@H](N)C4)nc3)CCN21 [Example 23]
[b] CO[C@H]1CN(c2ccc([C@@H]3CCN4[C@@H](C3)CN(c3ccc(C#N)c5ncccc35)C[C@H]4C)cn2)C[C@@H]1N [Example 6]
## Input I'd appreciate it if you could identify which of a and b has the greater pIC50. Your answer should be the label of the entry you select.
## Output a
